molecular target: Glutamate NMDA receptor; Grin1/Grin2c (Rattus norvegicus) (UniProt P35439+Q00961); experiment: Positive allosteric modulation of recombinant rat GluN1/GluN2C receptor expressed in xenopus laevis oocyte assessed as potentiation of glutamate and glycine-induced current response at 30 uM at holding potential -40mV by two electrode voltage clamp method relative to control
Quantity name: Emax (%)

molecule="CCOc1ccc(OCC2c3ccc(OCC(C)C)cc3CCN2C(=O)c2cccc(F)c2)cc1 (centres undefined)" unit_symbol=% recorded_number=325

P: CCC(CC)Oc1ccc2c(c1)CCN(C(=O)c1cccc(Cl)c1)C2COc1ccc(OC)cc1 (centres undefined)
Q: CCOc1ccc(OCC2c3ccc(OC(C)C)cc3CCN2C(=S)c2cccc(F)c2)cc1 (centres undefined)
Identify the entry with the smaller Emax: P or Q . When you have decided, please share the label of that item. Q
(Q: 170%, P: 294%)

1: COc1ccc(OC[C@@H]2c3ccc(OC(C)C)cc3CCN2C(=S)c2cccc(Cl)c2)cc1
2: CC(C)Oc1ccc(OCC2c3ccc(OC(C)C)cc3CCN2C(=O)c2cccc(F)c2)cc1 (centres undefined)
Identify the entry with the smaller Emax: 1 or 2 . When you have decided, please share the label of that item. 2

a: COc1ccc(OCC2c3ccc(N(C)C)cc3CCN2C(=O)c2cccc(Cl)c2)cc1 (centres undefined)
b: CC(C)Oc1ccc2c(c1)CCN(C(=O)c1cccc(Cl)c1)C2COc1ccc(OC(F)(F)F)cc1 (centres undefined)
For this pair, a and b , which shows a numerically higher Emax? When you have decided, please share the label of that item. a
